Sourced from patent US20250313548A1

Record form. Attribute: IC50. Fill in for each entry.
systemTested: human, KCNT1 (Homo sapiens (Human), UniProt Q5JUK3)
Sequence (Q5JUK3 whole entry): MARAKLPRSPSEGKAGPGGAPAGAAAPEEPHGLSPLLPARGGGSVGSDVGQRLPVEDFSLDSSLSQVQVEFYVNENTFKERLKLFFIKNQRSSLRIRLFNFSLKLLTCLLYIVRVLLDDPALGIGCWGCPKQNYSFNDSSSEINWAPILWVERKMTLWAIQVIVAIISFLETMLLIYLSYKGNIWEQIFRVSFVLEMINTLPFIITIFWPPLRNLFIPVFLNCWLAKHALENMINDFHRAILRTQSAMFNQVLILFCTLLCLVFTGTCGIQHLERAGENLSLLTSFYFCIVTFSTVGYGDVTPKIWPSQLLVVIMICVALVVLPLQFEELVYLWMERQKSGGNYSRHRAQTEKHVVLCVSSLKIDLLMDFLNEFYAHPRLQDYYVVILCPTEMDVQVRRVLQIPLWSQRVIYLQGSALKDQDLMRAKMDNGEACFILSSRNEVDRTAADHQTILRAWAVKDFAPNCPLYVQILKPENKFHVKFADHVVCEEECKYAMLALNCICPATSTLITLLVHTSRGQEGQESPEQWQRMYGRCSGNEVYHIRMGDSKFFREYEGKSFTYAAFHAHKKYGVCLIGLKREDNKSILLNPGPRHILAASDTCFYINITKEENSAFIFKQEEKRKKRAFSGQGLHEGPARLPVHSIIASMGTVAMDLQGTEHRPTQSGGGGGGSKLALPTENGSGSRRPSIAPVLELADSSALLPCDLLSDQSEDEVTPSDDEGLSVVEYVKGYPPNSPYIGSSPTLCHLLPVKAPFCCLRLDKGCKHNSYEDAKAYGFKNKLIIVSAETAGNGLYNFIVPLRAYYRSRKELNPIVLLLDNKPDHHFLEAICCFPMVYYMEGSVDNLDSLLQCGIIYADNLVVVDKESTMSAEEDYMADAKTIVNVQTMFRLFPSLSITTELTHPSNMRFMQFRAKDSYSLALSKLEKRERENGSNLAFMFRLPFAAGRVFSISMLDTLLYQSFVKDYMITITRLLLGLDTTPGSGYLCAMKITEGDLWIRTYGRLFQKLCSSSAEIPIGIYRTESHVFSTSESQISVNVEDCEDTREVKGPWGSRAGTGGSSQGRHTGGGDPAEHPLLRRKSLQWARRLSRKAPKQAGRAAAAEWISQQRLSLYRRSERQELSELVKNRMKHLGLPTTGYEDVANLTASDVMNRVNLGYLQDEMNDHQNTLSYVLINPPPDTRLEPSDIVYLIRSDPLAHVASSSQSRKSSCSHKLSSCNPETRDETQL
assayMethodText: FLIPR Tl/K Flux Assay
testParameters: HEK293 cells stably expressing human KCNT1; Tl+ flux stimulated with EC80 of agonist Loxapine

INSERT INTO assay_data (compound, quantitymeasured, result) VALUES
  ('O=C(N[C@@H]1CCCc2nnc(-c3ccnc(C(F)(F)F)c3)cc21)c1cc(F)cc(F)c1 [Compound I-453b]', 'IC50', '> 1000 nM'),
  ('Cc1cccc(C(=O)N[C@@H]2CCc3nn(-c4ccnc(C(F)(F)F)c4)cc32)c1 [Compound I-97b]', 'IC50', '> 1000 nM'),
  ('Cc1cn(C)nc1C(=O)N[C@H]1CCCn2nc(-c3ccnc(C(F)(F)F)c3)cc21 [Compound I-416a]', 'IC50', '250 to 500 nM');

Shift focus to the following entry.
Prompt: Suppose we examine the compound O=C(N[C@H]1CCCc2oc(-c3cc(C4CC4)ncc3F)nc21)c1cncc(C(F)(F)F)n1 [Compound I-208a] ; what IC50 value has been reported?
Completion: < 250 nM
